Reference source for all entries: ChEMBL document CHEMBL4431317

Catalogue of IC50 readings, one per entry.
- ASSAYED_SYSTEM: Tyrosine-protein phosphatase non-receptor type 11 (Homo sapiens)
- Sequence (Q06124 whole entry): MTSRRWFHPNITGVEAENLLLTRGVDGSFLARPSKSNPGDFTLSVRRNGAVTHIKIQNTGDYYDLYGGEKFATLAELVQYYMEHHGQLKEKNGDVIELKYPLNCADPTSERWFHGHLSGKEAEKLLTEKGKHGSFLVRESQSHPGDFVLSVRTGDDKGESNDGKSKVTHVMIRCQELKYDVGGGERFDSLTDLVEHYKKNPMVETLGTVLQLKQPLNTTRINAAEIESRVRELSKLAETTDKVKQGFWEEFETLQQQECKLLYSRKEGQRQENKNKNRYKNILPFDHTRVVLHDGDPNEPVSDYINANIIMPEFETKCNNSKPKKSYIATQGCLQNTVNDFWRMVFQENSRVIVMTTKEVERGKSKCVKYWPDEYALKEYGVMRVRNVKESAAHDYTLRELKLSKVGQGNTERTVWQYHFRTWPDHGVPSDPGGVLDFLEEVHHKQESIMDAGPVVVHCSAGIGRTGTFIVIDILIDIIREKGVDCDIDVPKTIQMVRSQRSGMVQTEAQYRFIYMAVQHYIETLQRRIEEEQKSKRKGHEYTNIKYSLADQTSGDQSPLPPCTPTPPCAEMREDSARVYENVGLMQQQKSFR
- MEASUREMENT_NOTES: Inhibition of human 6his-tagged SHP2 (2 to 593 residues) expressed in Escherichia coli BL21 Star (DE3) cells preincubated with IRS1_pY1172(dPEG8)pY1222 for 30 to 60 mins followed by addition of DiFMUP measured after 30 mins by fluorescence analysis
Unit µM implied. Number only.

// solved cases for IC50 follow
C[C@@H]1CN(c2ncc(-c3ccc(Cl)c(Cl)c3)c(N)n2)C[C@H](C)N1 :: 54
Nc1nc(N2CCC(N)CC2)ncc1-c1cccc(Cl)c1Cl :: 1.3
CN(C)C1CCN(c2ncc(-c3cccc(Cl)c3Cl)c(N)n2)CC1 :: 6.5

Q. Which measured IC50 value corresponds to C[C@@H]1CN(c2ncc(-c3cccc(Cl)c3)c(N)n2)C[C@H](C)N1 ?
A. 99

Q. Entry to check: CNc1nc(N2CCC(C)(N)CC2)cnc1-c1cccc(Cl)c1Cl
A. 22

* * *

- MEASUREMENT_NOTES: Apparent permeability across apical to basolateral side in human Caco2 cells
- Assay type: ADME, cell-based
- EXPERIMENTAL_SETUP: Caco-2
ASSAY_ENDPOINT: Papp A→B (×10⁻⁶ cm/s)
Unit ×10⁻⁶ cm/s implied. Number only.

Q. Which measured Papp A→B value corresponds to CC1(N)CCN(c2cnc(-c3cccc(Cl)c3Cl)c(N)n2)CC1 ?
A. 13.2
